These entries and their values trace back to PubChem BioAssay AID1259407.

# Tested on: CCRIS mutagenicity, Ames/micronucleus/aberration tests
# assay-protocol: CCRIS mutagenicity studies
# condition: Test System: AMES SALMONELLA TYPHIMURIUM; Strain/Indicator: TA100; Metabolic Activation: RAT, LIVER, S-9, PHENOBARBITAL; Method: PREINCUBATION
The source made the active and inactive calls. The rule behind the calls is not given here.
Valid outcomes are listed here; reply with one: active, inactive

compound | cat
Oc1cccc(O)c1O | active

Data request: Called result for Cc1cc(O)c2c(c1O)C(=O)C13C(=C2O)C(=O)C2C(O)C1C1C(O)C3C(=O)C3=C(O)c4c(O)cc(C)c(O)c4C(=O)C321 (stereo not drawn)
Data returned: inactive

Data request: So what was the verdict on `O=c1cc(CO)occ1O` in this test?
Data returned: inactive

Data request: Which outcome was entered for the compound `O=S(=O)(O)c1ccc(N=Nc2c(O)ccc3cc(S(=O)(=O)O)ccc23)cc1` in this test?
Data returned: inactive

Data request: Recorded call for `COc1cc2c(c3oc(=O)c4c(c13)CCOC4=O)[C@@H]1CCO[C@@H]1O2` ?
Data returned: inactive

Data request: What outcome does the record of this test show for `O=C1C=CC(=O)C=C1` ?
Data returned: active

Data request: Which outcome did this test record for the compound `COc1cc2c(c3oc4cccc(O)c4c(=O)c13)[C@@H]1C=CO[C@@H]1O2` ?
Data returned: active

Data request: What call does the record list for `Cc1c(N)ccc(N=Nc2ccccc2)c1N` ?
Data returned: active

----------
# Tested on: CCRIS mutagenicity, Ames/micronucleus/aberration tests
# assay-protocol: CCRIS mutagenicity studies
# condition: Test System: AMES SALMONELLA TYPHIMURIUM; Strain/Indicator: TA102; Metabolic Activation: NONE; Method: PREINCUBATION
Calls of active or inactive are those of the source. No rule for the calls is given here.
metric-name: mutagenic call

Please review the following examples before continuing.
compound | assay-system | mutagenic call
Nc1nc(=O)n([C@H]2C[C@H](O)[C@@H](CO)O2)cc1CCCl | CCRIS mutagenicity, Ames/micronucleus/aberration tests | inactive; negative
O=C([O-])[O-].[Mn+2] | CCRIS mutagenicity, Ames/micronucleus/aberration tests | inactive; negative
c1ccc2[nH]ccc2c1 | CCRIS mutagenicity, Ames/micronucleus/aberration tests | inactive; negative
CC(C)(C)CC(C)(C)c1ccc(O)cc1 | CCRIS mutagenicity, Ames/micronucleus/aberration tests | inactive; negative
CC1=CC(=O)C(C(C)C)=CC1=O | CCRIS mutagenicity, Ames/micronucleus/aberration tests | inactive; negative
O=C1C=CC(=O)c2ccccc21 | CCRIS mutagenicity, Ames/micronucleus/aberration tests | inactive; negative

Please supply mutagenic call for each of the following items, keeping them in order.
1. CC(C)CCOC(=O)CC(C)C
2. O=CC(O)C(O)C(O)C(O)CO (stereo unspecified)
3. COc1cc(OC)c(Cl)c(-n2c(-c3ccccc3)cc(=O)c(C)c2-c2ccc(F)cc2)c1

Data returned:
inactive; negative
inactive; negative
inactive; negative

Could you tell me mutagenic call for each of these compounds? They are listed below.
1. CCCC(=O)OCCC(C)C
2. [Ga]#[As]
3. O=P(O)(O)O
4. CC1(C)[C@@H]2CC[C@@]1(C)[C@@H](O)C2
5. O=c1[nH]c(=O)n([C@H]2C[C@H](O)[C@@H](CO)O2)cc1I
6. O=C(O)/C=C/C(=O)O

Data returned:
inactive; negative
inactive; negative
inactive; negative
inactive; negative
inactive; negative
inactive; negative

Data request: Form: Entry = `O.O.O.[Fe].[Fe]` | System = CCRIS mutagenicity, Ames/micronucleus/aberration tests | mutagenic call = ____
Data returned: inactive; negative

----------
# Test system: CCRIS mutagenicity, Ames/micronucleus/aberration tests
# assay-protocol: CCRIS mutagenicity studies
# condition: Test System: AMES SALMONELLA TYPHIMURIUM; Strain/Indicator: TA98; Metabolic Activation: HAMSTER, LIVER, S-9, AROCLOR 1254 (10%); Method: PREINCUBATION
Calls of active or inactive are those of the source. The rule behind the calls is not given here.
Hello, when you answer, please use one of the following outcomes: active, inactive

Observe how each entry below is paired with its result.
compound | cat
CN(C)CCCN | inactive
C[CH2][Pb]([Cl])([CH2]C)[CH2]C | inactive
Cc1ccc(Br)cc1 | inactive
C/C(C=O)=C\c1ccccc1 | inactive
CC(N)CN (stereo not given) | inactive
CC(=O)/C(C)=N/O | inactive
CCCNC(=O)NS(=O)(=O)c1ccc(Cl)cc1 | inactive
COC(=O)c1ccc(C)cc1 | inactive
Nc1ccc(O)c([N+](=O)[O-])c1 | inactive
CCCCCN(CCCCC)CCCCC | inactive

Data request: Identify the outcome logged in this assay for the compound shown: `ClCC(Cl)Cl`
Data returned: inactive

Data request: # fetch the recorded call for `O=C(Cl)c1ccc([N+](=O)[O-])cc1` here
Data returned: active

Data request: Assay result, entry `O=C(O)CS` — outcome?
Data returned: inactive

----------
# Test system: CCRIS mutagenicity, Ames/micronucleus/aberration tests
# assay-protocol: CCRIS mutagenicity studies
# condition: End Point: IN VITRO CHROMOSOMAL ABERRATIONS; Test System: CHL CELLS; Metabolic Activation: RAT, LIVER, S-9, SODIUM PHENOBARBITAL AND 5,6-BENZOFLAVONE
Calls of active or inactive are those of the source. How the calls were made is not given here.
Please reply with one of these outcomes: class 1 (active), class 0 (inactive)

Data request: Dear colleague, could you share the recorded outcome for CCC(Cl)C(=O)O (stereo unspecified) when you have a moment?
Data returned: class 0

Data request: Tell me the recorded outcome of this test for `O=[N+]([O-])c1cccc2cccc([N+](=O)[O-])c12` .
Data returned: class 1

Data request: Hi, sorry to bother you, what did the test record for `Nc1ccccc1[N+](=O)[O-]` ?
Data returned: class 1

Data request: Per the assay record, what outcome was assigned to `Nc1ccc([N+](=O)[O-])cc1Cl` ?
Data returned: class 1

Data request: Each molecule tested received a call. Report the one for `O=CCCCC=O` .
Data returned: class 1

Data request: Check the results log: what was the call for `Nc1ccc2c(O)cc(S(=O)(=O)O)cc2c1` ?
Data returned: class 1

----------
# Tested on: CCRIS mutagenicity, Ames/micronucleus/aberration tests
# assay-protocol: CCRIS mutagenicity studies
# condition: Test System: AMES SALMONELLA TYPHIMURIUM; Strain/Indicator: TA1538; Metabolic Activation: NONE; Method: PREINCUBATION
Activity calls are given as the source filed them. How the calls were made is not given here.
Hi there, use one of these labels in your reply, thanks! active, inactive

Consider the worked cases shown below.
compound | assay-system | cat
O=C1C=CC(=O)c2ccccc21 | CCRIS mutagenicity, Ames/micronucleus/aberration tests | inactive
c1ccc2cc(Nc3ccc(Nc4ccc5ccccc5c4)cc3)ccc2c1 | CCRIS mutagenicity, Ames/micronucleus/aberration tests | inactive

Data request: Recorded test call requested for `O=C1C=CC(=O)c2c(O)c(Cl)c(Cl)c(O)c21`
Data returned: inactive

Data request: Recorded test call requested for `O=C=Nc1cccc2c(N=C=O)cccc12`
Data returned: inactive

Data request: Please state the recorded outcome for this compound: `O=c1ccc(=O)c2c(=O)c(Cl)c(Cl)c(=O)c1=2`
Data returned: inactive

Data request: Hi team, can someone confirm the assay call for `CC(C)(Cl)[N+](=O)[O-]` ?
Data returned: inactive

Data request: Answer briefly: the call reported for CC(O)C(C)O (stereo not drawn) in this assay.
Data returned: inactive

Data request: How did this test come out for `COC1=CC=CC=CC1` ?
Data returned: inactive

Data request: Just curious, what result did `Nc1nc(=O)n([C@H]2C[C@H](O)[C@@H](CO)O2)cc1I` get here?
Data returned: inactive

Data request: Could you check what this test reported for `O=C1C=C(Nc2ccccc2)C(=O)c2ccccc21` ?
Data returned: inactive

Data request: So what was the verdict on `NC(=O)N(c1ccccc1)c1ccc(C(=O)O)cc1` in this test?
Data returned: inactive

Data request: Query: recorded result category for `O=[N+]([O-])c1cccc2cccc([N+](=O)[O-])c12` in this test
Data returned: active

Data request: Please indicate how the test categorized `CCOc1ccc([N+](=O)[O-])cc1` .
Data returned: inactive

Data request: Hi, do you know how `CCC(C)=O` came out in this test?
Data returned: inactive

Data request: Assay result, entry `CCOCCO` — outcome?
Data returned: inactive

Data request: Per the records of this test, what outcome belongs to `CCN(N=O)c1ccccc1` ?
Data returned: inactive

Data request: Please state the recorded outcome for this compound: `CCCC(=O)Nc1ncnc2c1ncn2[C@@H]1O[C@@H]2COP(=O)(O)O[C@H]2[C@H]1OC(=O)CCC`
Data returned: inactive

Data request: Please share the test call associated with `Nc1nc(=O)n([C@H]2C[C@H](O)[C@@H](CO)O2)cc1CCCl` .
Data returned: inactive
